Data credit: patent US20230278995A1

Target: human recombinant HDAC6 (Homo sapiens, UniProt Q9UBN7)
Construct: purchased Calbiochem Inc. 382180
Sequence (Q9UBN7 whole entry): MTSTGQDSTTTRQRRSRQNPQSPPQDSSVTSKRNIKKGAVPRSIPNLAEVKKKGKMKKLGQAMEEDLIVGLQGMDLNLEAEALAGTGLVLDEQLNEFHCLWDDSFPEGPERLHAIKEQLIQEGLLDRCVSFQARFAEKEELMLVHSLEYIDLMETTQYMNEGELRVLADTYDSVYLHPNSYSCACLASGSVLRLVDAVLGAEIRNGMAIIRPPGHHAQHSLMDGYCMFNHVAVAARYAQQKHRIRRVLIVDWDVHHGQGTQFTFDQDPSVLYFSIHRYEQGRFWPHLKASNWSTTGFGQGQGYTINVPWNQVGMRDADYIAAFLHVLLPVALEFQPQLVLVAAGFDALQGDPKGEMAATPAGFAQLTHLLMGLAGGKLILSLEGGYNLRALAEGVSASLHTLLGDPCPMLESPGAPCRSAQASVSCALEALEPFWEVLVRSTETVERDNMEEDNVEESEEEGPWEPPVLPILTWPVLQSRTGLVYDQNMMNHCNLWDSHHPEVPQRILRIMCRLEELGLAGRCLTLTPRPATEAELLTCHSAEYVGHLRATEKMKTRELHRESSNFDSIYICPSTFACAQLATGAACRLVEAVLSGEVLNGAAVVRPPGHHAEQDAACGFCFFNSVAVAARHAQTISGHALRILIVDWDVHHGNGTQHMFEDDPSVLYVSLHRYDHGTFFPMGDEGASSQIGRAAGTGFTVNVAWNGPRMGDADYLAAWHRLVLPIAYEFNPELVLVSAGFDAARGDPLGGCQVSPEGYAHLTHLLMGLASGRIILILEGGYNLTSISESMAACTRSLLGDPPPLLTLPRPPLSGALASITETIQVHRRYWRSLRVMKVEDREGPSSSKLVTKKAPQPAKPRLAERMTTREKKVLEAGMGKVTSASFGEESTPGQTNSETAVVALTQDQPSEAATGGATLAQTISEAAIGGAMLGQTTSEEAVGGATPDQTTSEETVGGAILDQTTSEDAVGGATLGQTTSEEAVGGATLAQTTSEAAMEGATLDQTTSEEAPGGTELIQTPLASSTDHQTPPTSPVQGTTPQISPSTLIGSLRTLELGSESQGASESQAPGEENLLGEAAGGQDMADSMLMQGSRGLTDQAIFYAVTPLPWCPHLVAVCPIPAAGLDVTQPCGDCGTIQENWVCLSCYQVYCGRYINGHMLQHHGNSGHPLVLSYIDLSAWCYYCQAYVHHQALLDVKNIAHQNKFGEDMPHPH
Assay: HDAC enzyme activity inhibition assay (HDAC Fluorimetric Drug Discovery Kit), HDAC6
Format: biochemical
Settings: HDAC1 vs HDAC6
Description: For the HDAC1 enzyme activity test, human recombinant HDAC1 (BML-SE456) was used as an enzyme source and Fluor de Lys©-SIRT1 (BNL-K1177) was used as a substrate. […] Next, Fluor de Lys© Developer II (BML-K1176) was added and reacted for 30 minutes to complete the reaction, and then the fluorescence values (Ex 360, Em 460) were measured using a multi-plate reader (Flexstation 3, Molecular Device). […]
MEASURED METRIC: HDAC6 selectivity (fold)

INSERT INTO results (molecule, target, measured_metric, measure_unit, quantitative_readout) VALUES
  ('CC(C)C(=O)N1CCC(F)(C(=O)N(Cc2ccc(-c3nnc(C(F)F)o3)cc2F)c2ccccc2)CC1 [Compound 3440]', 'human recombinant HDAC6 (Homo sapiens, UniProt Q9UBN7)', 'HDAC6 selectivity (fold)', 'fold', 178),
  ('CN1CC(F)(C(=O)N(Cc2ccc(-c3nnc(C(F)F)o3)cc2F)c2ccccc2)C1 [Compound 3429]', 'human recombinant HDAC6 (Homo sapiens, UniProt Q9UBN7)', 'HDAC6 selectivity (fold)', 'fold', 421),
  ('O=C(N(Cc1ccc(-c2nnc(C(F)F)o2)cn1)c1ccccc1)C1(F)CN(CC2CCOCC2)C1 [Compound 3216]', 'human recombinant HDAC6 (Homo sapiens, UniProt Q9UBN7)', 'HDAC6 selectivity (fold)', 'fold', 875),
  ('CN1CC(F)(C(=O)N(Cc2ccc(-c3nnc(C(F)F)o3)cn2)c2cccc(F)c2)C1 [Compound 3047]', 'human recombinant HDAC6 (Homo sapiens, UniProt Q9UBN7)', 'HDAC6 selectivity (fold)', 'fold', 242),
  ('CC(C)N1CCC(F)(C(=O)N(Cc2ccc(-c3nnc(C(F)F)o3)cn2)c2ccccc2)CC1 [Compound 2952]', 'human recombinant HDAC6 (Homo sapiens, UniProt Q9UBN7)', 'HDAC6 selectivity (fold)', 'fold', 504),
  ('O=C(N(Cc1ccc(-c2nnc(C(F)F)o2)cn1)c1cccc(F)c1)C1(F)CN(C2COC2)C1 [Compound 3050]', 'human recombinant HDAC6 (Homo sapiens, UniProt Q9UBN7)', 'HDAC6 selectivity (fold)', 'fold', 683),
  ('CC(C)CC(=O)N1CC(F)(C(=O)N(Cc2ccc(-c3nnc(C(F)F)o3)cn2)c2cccc(F)c2)C1 [Compound 3166]', 'human recombinant HDAC6 (Homo sapiens, UniProt Q9UBN7)', 'HDAC6 selectivity (fold)', 'fold', 741),
  ('O=C(N(Cc1ccc(-c2nnc(C(F)F)o2)cn1)c1cccc(F)c1)C1(F)CN(C2CCN(C3COC3)CC2)C1 [Compound 3406]', 'human recombinant HDAC6 (Homo sapiens, UniProt Q9UBN7)', 'HDAC6 selectivity (fold)', 'fold', 734);

a. CCN1CCC(F)(C(=O)N(Cc2ccc(-c3nnc(C(F)F)o3)cn2)c2cccc(F)c2)CC1 [Compound 3443]
b. CN1CCC(F)(C(=O)N(Cc2ccc(-c3nnc(C(F)F)o3)cn2)c2ccccc2)CC1 [Compound 2951]
Of the pair a and b , name the member with the lesser recorded HDAC6 selectivity (fold). Your answer should be the label of the entry you select.
b
(b: 569 fold, a: 967 fold)
